# System: mGrn mRNA
# Protocol notes: mGrn mRNA qPCR in Neuro2a cells transfected with ASOs
# Format: cell-based, mouse
# Measurement conditions: Table 15; Neuro2a, 80 nM, transfection
Oligonucleotides are written 5' to 3', each unit as a sugar letter and its base; * is a phosphorothioate linkage, no mark a phosphodiester; rarer units and linkages stand in square brackets, end groups in braces. Plain capitals give the bases only. e = 2'-O-(2-methoxyethyl) (MOE); l = locked nucleic acid (LNA); [5mC] = 5-methylcytosine

[
  {
    "Substance": "CO-5296: CO-3544 modified to include PO/PS bonds (antisense eG*eT*eTe[5mC]eTe[5mC]e[5mC]e[5mC]eTeAeGe[5mC]eTeGeTeG*eT*eA*eG*eT)",
    "Measurement target": "mGrn mRNA",
    "80 nM FC (mGrn mRNA)": "1.1 FC"
  },
  {
    "Substance": "CO-5292: CO-3544 modified to include PO/PS bonds (antisense eG*eT*eT*e[5mC]*eT*e[5mC]*e[5mC]e[5mC]eTeAeGe[5mC]eTeGeTeGeT*eA*eG*eT)",
    "Measurement target": "mGrn mRNA",
    "80 nM FC (mGrn mRNA)": "1.1 FC"
  },
  {
    "Substance": "CO-4082: ASO based on parent ASOs CO-3544 and CO-3595, different modifications and base walking (antisense eG*eT*eT*e[5mC]*eT*l[5mC]*e[5mC]*e[5mC]*lT*eA*eG*l[5mC]*eT*eG*lT*eG*eT*eA*eG*eT)",
    "Measurement target": "mGrn mRNA",
    "80 nM FC (mGrn mRNA)": "1.6 FC"
  },
  {
    "Substance": "CO-3544: ASO targeting the mouse Grn promoter (− strand); targets mouse Grn paRNA (antisense eG*eT*eT*e[5mC]*eT*e[5mC]*e[5mC]*e[5mC]*eT*eA*eG*e[5mC]*eT*eG*eT*eG*eT*eA*eG*eT)",
    "Measurement target": "mGrn mRNA",
    "80 nM FC (mGrn mRNA)": "1.3 FC"
  }
]

###

# Tested on: GRN mRNA
# Protocol notes: GRN mRNA qPCR in SK-N-AS cells transfected with ASOs
# Assay type: cell-based, human
# Measurement conditions: Table 11; SK-N-AS, 120 nM, 48 hours; normalized to CO-1589
Oligonucleotides are written 5' to 3', each unit as a sugar letter and its base; * is a phosphorothioate linkage, no mark a phosphodiester; rarer units and linkages stand in square brackets, end groups in braces. Plain capitals give the bases only. e = 2'-O-(2-methoxyethyl) (MOE); [5mC] = 5-methylcytosine
Below is a list of entries, each paired with its recorded hGRN mRNA FC value.
Property name: hGRN mRNA FC (FC)

[
  {
    "Substance": "CO-6445: ASO designed to target an intragenic enhancer RNA (eRNA) (eG*eT*eG*eG*eG*eA*eA*eG*eT*eA*eT*eG*eG*e[5mC]*eT*eG*e[5mC]*eT*eG*e[5mC])",
    "Property name": "hGRN mRNA FC",
    "Recorded result": 1.3
  },
  {
    "Substance": "CO-6436: ASO designed to target an intragenic enhancer RNA (eRNA) (eT*eG*eT*e[5mC]*e[5mC]*e[5mC]*e[5mC]*eA*e[5mC]*eT*e[5mC]*eA*eG*eG*e[5mC]*e[5mC]*eA*e[5mC]*e[5mC]*eT)",
    "Property name": "hGRN mRNA FC",
    "Recorded result": 1.1
  }
]

src = patent US20250243488A1
